B1: LINE1-full (parent)
chain: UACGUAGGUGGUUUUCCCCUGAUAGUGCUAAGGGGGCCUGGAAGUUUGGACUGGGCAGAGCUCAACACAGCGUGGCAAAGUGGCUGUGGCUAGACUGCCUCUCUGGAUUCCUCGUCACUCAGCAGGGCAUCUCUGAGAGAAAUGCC

Variants of: B1
Assay: self-cleavage, relative activity (ratio to wild type); higher = more cleavage; in vitro, sequencing; the parent is a self-cleaving ribozyme
Would you mind telling me the reported self-cleavage of each entry?
Numbers only.

Use these answered entries as a reference point.
- MUTATION_SPEC: "U73A U132C"
  OBSERVED: 1.53
- MUTATION_SPEC: "C37U A140U"
  OBSERVED: 1.14
- MUTATION_SPEC: "G125U A136G"
  OBSERVED: 0.79
- MUTATION_SPEC: "U96C U134C"
  OBSERVED: 0.11
- MUTATION_SPEC: "C90U G93U"
  OBSERVED: 0.04

List the reported self-cleavage of each variant below.
1. U15A A124U
2. U12A U115C
3. U26G U130C
4. C133U A138C
5. A42G A124C
6. U23C A121U
7. U104G A140C
8. A30C G122A

A.
[0.85, 1.21, 0.86, 1.74, 2.96, 0.66, 0.28, 1.02]

Could you tell me self-cleavage for each of these variants? They are listed below.
1. U12G G105U
2. A2G U109A
3. G8U U29C

A.
[0.67, 0.65, 1.99]

Quick batch: self-cleavage for everything below.
1. G33U A117G
2. A107C U143C
3. G33C A121G
4. A124G G144C

A.
1.39
1.67
0.21
0.68

Could I get self-cleavage for every one of these entries?
1. A138U U143G
2. A138U A140G

A.
[1.5, 1.2]
